# Test system: Salmonella TA100
# assay_info: Salmonella plate-incorporation mutagenicity assay, strain TA100
# Assay type: cell-based
# study_conditions: TA100 +S9, Test 1, 40 µg/plate; zero-dose 99/110/110
Values of Rev/plate strictly less than 1000 rev/plate map to rule met, and values of at least 1000 rev/plate map to rule not met.

Known results for compounds:
In [3]: df
Out[3]:
                                   compound  assigned_label
0  c1ccc2c(c1)ccc1ccc3ccsc3c12 [P[4,3-b]T, Phenanthro[4,3-b]thiophene]        rule met
1  O[C@@H]1c2ccccc2-c2c(ccc3ccccc23)[C@H]1O (racemic) [B[c]P 5,6-diol]        rule met
2  O[C@@H]1c2ccccc2-c2c(ccc3ccsc23)[C@H]1O (racemic) [P[4,3-b]T 6,7-diol]        rule met
3  c1ccc2c(c1)ccc1ccc3ccccc3c12 [B[c]P, Benzo[c]phenanthrene]        rule met
4  O[C@@H]1c2ccccc2-c2c(ccc3sccc23)[C@H]1O (racemic) [P[3,4-b]T 6,7-diol]    rule not met

Request: Given O[C@@H]1C=Cc2c(ccc3ccc4ccccc4c23)[C@H]1O (racemic) [B[c]P 3,4-diol] , is recorded Rev/plate strictly lower than 1000 rev/plate?
Response: rule met

* * *

# System: Salmonella TA100
# assay_info: Salmonella plate-incorporation mutagenicity assay, strain TA100
# Assay type: cell-based
# study_conditions: TA100 +S9, Test 2, 5 µg/plate; zero-dose 84/78/80
readout_name: Rev/plate

Study these solved cases before continuing.
                                   molecule  readout_name  reported_measurement
0  O[C@@H]1c2ccccc2-c2c(ccc3ccsc23)[C@H]1O (racemic) [P[4,3-b]T 6,7-diol]     Rev/plate                 97/98
1  O[C@@H]1C=Cc2c(ccc3ccc4ccsc4c23)[C@H]1O (racemic) [P[4,3-b]T 8,9-diol]     Rev/plate               857/907
2  O[C@@H]1c2ccccc2-c2c(ccc3sccc23)[C@H]1O (racemic) [P[3,4-b]T 6,7-diol]     Rev/plate               369/364
3  O[C@@H]1C=Cc2c(ccc3ccc4ccccc4c23)[C@H]1O (racemic) [B[c]P 3,4-diol]     Rev/plate               598/153

Required: Rev/plate, one value per molecule below.
1. c1ccc2c(c1)ccc1ccc3ccsc3c12 [P[4,3-b]T, Phenanthro[4,3-b]thiophene]
2. c1ccc2c(c1)ccc1ccc3ccccc3c12 [B[c]P, Benzo[c]phenanthrene]
3. O[C@@H]1C=Cc2c(ccc3ccc4sccc4c23)[C@H]1O (racemic) [P[3,4-b]T 8,9-diol]

Response:
1: 116/108; 2: 300/204; 3: 352/315

* * *

So I've got a bunch of compounds here, and I need their Rev/plate values.
# System: Salmonella TA98
# assay_info: Salmonella plate-incorporation mutagenicity assay, strain TA98, with S9 mix
# Format: cell-based
# study_conditions: TA98 +S9, Test 2, 5 µg/plate; zero-dose 43/41/30

Required: Rev/plate, one value per compound below.
1. O[C@@H]1C=Cc2c(ccc3ccc4ccccc4c23)[C@H]1O (racemic) [B[c]P 3,4-diol]
2. O[C@@H]1c2ccccc2-c2c(ccc3ccsc23)[C@H]1O (racemic) [P[4,3-b]T 6,7-diol]
3. c1ccc2c(c1)ccc1ccc3ccccc3c12 [B[c]P, Benzo[c]phenanthrene]
4. c1ccc2c(c1)ccc1ccc3ccsc3c12 [P[4,3-b]T, Phenanthro[4,3-b]thiophene]
5. O=S1(=O)C=Cc2c1ccc1ccc3ccccc3c21 [P[3,4-b]T sulfone, Phenanthro[3,4-b]thiophene sulfone]

Response:
1: 120/112; 2: 28/34; 3: 56/50; 4: 97/77; 5: 765/708

* * *

So I've got a bunch of compounds here, and I need their Rev/plate values.
# Test system: Salmonella TA98
# assay_info: Salmonella plate-incorporation mutagenicity assay, strain TA98, with S9 mix
# Format: cell-based
# study_conditions: TA98 +S9, Test 2, 10 µg/plate; zero-dose 43/41/30

Required: Rev/plate, one value per compound below.
1. O[C@@H]1C=Cc2c(ccc3ccc4ccccc4c23)[C@H]1O (racemic) [B[c]P 3,4-diol]
2. O[C@@H]1c2ccccc2-c2c(ccc3ccccc23)[C@H]1O (racemic) [B[c]P 5,6-diol]
3. O[C@@H]1C=Cc2c(ccc3ccc4sccc4c23)[C@H]1O (racemic) [P[3,4-b]T 8,9-diol]
4. O[C@@H]1c2ccccc2-c2c(ccc3ccsc23)[C@H]1O (racemic) [P[4,3-b]T 6,7-diol]
5. O[C@@H]1C=Cc2c(ccc3ccc4ccsc4c23)[C@H]1O (racemic) [P[4,3-b]T 8,9-diol]
6. c1ccc2c(c1)ccc1ccc3ccsc3c12 [P[4,3-b]T, Phenanthro[4,3-b]thiophene]

Response:
180/199
43/42
104/110
27/28
167/151
110/79

* * *

# System: Salmonella TA100
# assay_info: Salmonella plate-incorporation mutagenicity assay, strain TA100
# Type: cell-based
# study_conditions: TA100 +S9, Test 4, 1 µg/plate; zero-dose 112/140/115
readout_name: Rev/plate

Required: Rev/plate, one value per molecule below.
1. c1ccc2c(c1)ccc1ccc3ccsc3c12 [P[4,3-b]T, Phenanthro[4,3-b]thiophene]
2. O[C@@H]1C=Cc2c(ccc3ccc4ccsc4c23)[C@H]1O (racemic) [P[4,3-b]T 8,9-diol]
3. O=S1(=O)C=Cc2c1ccc1ccc3ccccc3c21 [P[3,4-b]T sulfone, Phenanthro[3,4-b]thiophene sulfone]
4. O[C@@H]1C=Cc2c(ccc3ccc4ccccc4c23)[C@H]1O (racemic) [B[c]P 3,4-diol]

Response:
1: 160/156; 2: 487/469; 3: 380/383; 4: 613/577

* * *

# Test system: Salmonella TA100
# assay_info: Salmonella plate-incorporation mutagenicity assay, strain TA100
# Assay type: cell-based
# study_conditions: TA100 +S9, Test 1, 5 µg/plate; zero-dose 99/110/110
So I've got a bunch of compounds here, and I need their Rev/plate values.
One number for each entry, in rev/plate.

Study these solved cases before continuing.
>>> print(df.to_string())
                                   compound  readout_name  unit_abbreviation  reported_measurement
0  O[C@@H]1c2ccccc2-c2c(ccc3sccc23)[C@H]1O (racemic) [P[3,4-b]T 6,7-diol]     Rev/plate          rev/plate                   461
1  O[C@@H]1c2ccccc2-c2c(ccc3ccccc23)[C@H]1O (racemic) [B[c]P 5,6-diol]     Rev/plate          rev/plate                   151
2  c1ccc2c(c1)ccc1ccc3ccccc3c12 [B[c]P, Benzo[c]phenanthrene]     Rev/plate          rev/plate                   388

Required: Rev/plate, one value per compound below.
1. c1ccc2c(c1)ccc1ccc3ccsc3c12 [P[4,3-b]T, Phenanthro[4,3-b]thiophene]
2. O[C@@H]1C=Cc2c(ccc3ccc4ccsc4c23)[C@H]1O (racemic) [P[4,3-b]T 8,9-diol]

Response:
[194, 938]

* * *

# Tested on: Salmonella TA104
# assay_info: Salmonella plate-incorporation mutagenicity assay, strain TA104, with S9 mix
# Assay type: cell-based
# study_conditions: TA104 +S9, Test 3, 2 µg/plate; zero-dose 402/395/336
readout_name: Rev/plate

                                   compound   subject_of_test  reported_measurement
0  c1ccc2c(c1)ccc1ccc3sccc3c12 [P[3,4-b]T, Phenanthro[3,4,-b]thiophene]  Salmonella TA104               604/630
1  O[C@@H]1c2ccccc2-c2c(ccc3sccc23)[C@H]1O (racemic) [P[3,4-b]T 6,7-diol]  Salmonella TA104               475/419
2  Nc1ccc2cc3ccccc3cc2c1 [2-aminoanthracene, reference compound]  Salmonella TA104             1434/1518
3  c1ccc2c(c1)ccc1ccc3ccsc3c12 [P[4,3-b]T, Phenanthro[4,3-b]thiophene]  Salmonella TA104               468/515

Next:
Entry c1ccc2c(c1)ccc1ccc3ccccc3c12 [B[c]P, Benzo[c]phenanthrene] ; Rev/plate = 588/660

* * *

So I've got a bunch of molecules here, and I need their Rev/plate values.
# System: Salmonella TA104
# assay_info: Salmonella plate-incorporation mutagenicity assay, strain TA104, with S9 mix
# Assay type: cell-based
# study_conditions: TA104 +S9, Test 2, 10 µg/plate; zero-dose 276/260/270

Study these solved cases before continuing.
In [3]: df
Out[3]:
                                   molecule  reported_measurement
0  O=S1(=O)C=Cc2c1ccc1ccc3ccccc3c21 [P[3,4-b]T sulfone, Phenanthro[3,4-b]thiophene sulfone]             1488/1583
1  O[C@@H]1c2ccccc2-c2c(ccc3sccc23)[C@H]1O (racemic) [P[3,4-b]T 6,7-diol]               475/484
2  O[C@@H]1c2ccccc2-c2c(ccc3ccsc23)[C@H]1O (racemic) [P[4,3-b]T 6,7-diol]               391/347

Next:
The recorded Rev/plate with Salmonella TA104 for c1ccc2c(c1)ccc1ccc3ccsc3c12 [P[4,3-b]T, Phenanthro[4,3-b]thiophene] was 437/473
